Tested on: MS2 coat protein
Assay: apparent KD of MS2 coat protein; designed switch direction (-1 OFF switch, 1 ON switch): -1; higher = weaker reporter binding
Conditions: input ligand: none
readoutType: apparent KD of MS2 coat protein

sequence	readoutType	result
UAUUAGCAAGUAAGAUCCCACAUGAGGAUCACCCAUGUGCUCGUCAUAUCAGGUACGGAGCGGAAACUCCCGAUAUG [Sensor-V1 #89] (Eterna round: R97, puzzle: Sensor, turn-off variant 1)	apparent KD of MS2 coat protein	95.9 nM
UUUCAACAUGAGGAUCACCCAUGUCAGGAUAUCAUUUAGCUCAUACACUUACCAUCAUUGAGAAGGGACAUGCU [Colors] (Eterna round: R97, puzzle: Exclusion 1)	apparent KD of MS2 coat protein	19 nM
AAACUACUUGGGCUGACACAUGAGGAUCACCCAUGUGGAGGGCAGGAUAUGCCCAUAAAAUUGGCGCAGAAGGGCCCACGUAGA [Tegesousbe] (Eterna round: R96, puzzle: Exclusion NG 3)	apparent KD of MS2 coat protein	13.9 nM
